// read-out pIC50, gathered for Prostaglandin G/H synthase 2 (Homo sapiens, UniProt P35354) from published studies
pIC50: −log10 of the molar value.
Result Type: pIC50

CSc1ccc(-c2c(-c3ccc(Cl)cc3)nc3ncccn23)cc1Cl: < 4.60
CS(=O)(=O)c1ccc(-c2cc(C(F)(F)F)cc(OCc3ccc(Br)cn3)n2)cc1: ≥ 6.30
CS(=O)(=O)c1ccc(-c2ccc3ccn(-c4ccccc4)c3n2)cc1: ≥ 6.30
Cc1ccc(COc2cc(C(F)(F)F)cc(-c3ccc(S(C)(=O)=O)cc3)n2)cn1: ≥ 6.30
Cc1cc(NCc2cccs2)nc(-c2ccc(S(C)(=O)=O)cc2)c1: ≥ 6.30
Cc1ncccc1Nc1cc(C(F)(F)F)cc(-c2ccc(S(C)(=O)=O)cc2)n1: ≥ 6.30
CS(=O)(=O)c1ccc(-c2cc(C(F)(F)F)nc(NCC3CCC3)n2)cc1: > 9.00
Cc1cc(NCc2csnc2C)nc(-c2ccc(S(C)(=O)=O)cc2)c1: ≥ 6.30
Cc1cc(-c2ccc(S(C)(=O)=O)cc2)nc(NCC(C)C)c1C: ≥ 6.30
Cc1cc(NCc2ccccn2)nc(-c2ccc(S(C)(=O)=O)cc2)c1: ≥ 6.30
Cc1cc(-c2ccc(S(C)(=O)=O)cc2)nc(NCc2ccccn2)c1C#N: ≥ 6.30
Cc1cc(NCc2ccco2)nc(-c2ccc(S(C)(=O)=O)cc2)c1: ≥ 6.30
CCCCNc1nc(-c2ccc(S(C)(=O)=O)cc2)c(C)c(C(F)(F)F)n1: 5.20
CS(=O)(=O)c1ccc(-c2cc(C(F)(F)F)cc(NC3CCCCCC3)n2)cc1: ≥ 6.30
Cc1cc(NC2CCCCC2)nc(-c2ccc(S(C)(=O)=O)cc2)c1: ≥ 6.30
Cc1ncccc1Oc1cc(C(F)(F)F)cc(-c2ccc(S(C)(=O)=O)cc2)n1: ≥ 6.30
Cc1cc(NCc2cccnc2)nc(-c2ccc(S(C)(=O)=O)cc2)c1: ≥ 6.30
Cc1c(-c2ccc(S(C)(=O)=O)cc2)nc(NCC(C)C)nc1C(F)(F)F: 5.18
